# measured_target: HLA-A*02 (human)
# protocol_notes: UV peptide-exchange ELISA, yield grade
Answer each item with its documented peptide exchange yield.

These recorded examples may help you get a feel for the data.
{"columns": ["binder", "peptide exchange yield"],
 "data": [
  ["ILVEGISTV [ILVEGISTV (SEQ ID NO: 142)]", "50 to 75%"],
  ["YLLDPSITL [YLLDPSITL (SEQ ID NO: 29)]", "50 to 75%"],
  ["AIVKEIVNI [AIVKEIVNI (SEQ ID NO: 61)]", "20 to 49%"]
]}

Consider now this further binder.
Inquiry: # get_value(readout='peptide exchange yield', item= TVVTRLDEI [TVVTRLDEI (SEQ ID NO: 78)] )
Reply text: 20 to 49%
